# Tested on: human Nav 1.5 (Homo sapiens (Human), UniProt Q14524)
# Sequence (Q14524 whole entry): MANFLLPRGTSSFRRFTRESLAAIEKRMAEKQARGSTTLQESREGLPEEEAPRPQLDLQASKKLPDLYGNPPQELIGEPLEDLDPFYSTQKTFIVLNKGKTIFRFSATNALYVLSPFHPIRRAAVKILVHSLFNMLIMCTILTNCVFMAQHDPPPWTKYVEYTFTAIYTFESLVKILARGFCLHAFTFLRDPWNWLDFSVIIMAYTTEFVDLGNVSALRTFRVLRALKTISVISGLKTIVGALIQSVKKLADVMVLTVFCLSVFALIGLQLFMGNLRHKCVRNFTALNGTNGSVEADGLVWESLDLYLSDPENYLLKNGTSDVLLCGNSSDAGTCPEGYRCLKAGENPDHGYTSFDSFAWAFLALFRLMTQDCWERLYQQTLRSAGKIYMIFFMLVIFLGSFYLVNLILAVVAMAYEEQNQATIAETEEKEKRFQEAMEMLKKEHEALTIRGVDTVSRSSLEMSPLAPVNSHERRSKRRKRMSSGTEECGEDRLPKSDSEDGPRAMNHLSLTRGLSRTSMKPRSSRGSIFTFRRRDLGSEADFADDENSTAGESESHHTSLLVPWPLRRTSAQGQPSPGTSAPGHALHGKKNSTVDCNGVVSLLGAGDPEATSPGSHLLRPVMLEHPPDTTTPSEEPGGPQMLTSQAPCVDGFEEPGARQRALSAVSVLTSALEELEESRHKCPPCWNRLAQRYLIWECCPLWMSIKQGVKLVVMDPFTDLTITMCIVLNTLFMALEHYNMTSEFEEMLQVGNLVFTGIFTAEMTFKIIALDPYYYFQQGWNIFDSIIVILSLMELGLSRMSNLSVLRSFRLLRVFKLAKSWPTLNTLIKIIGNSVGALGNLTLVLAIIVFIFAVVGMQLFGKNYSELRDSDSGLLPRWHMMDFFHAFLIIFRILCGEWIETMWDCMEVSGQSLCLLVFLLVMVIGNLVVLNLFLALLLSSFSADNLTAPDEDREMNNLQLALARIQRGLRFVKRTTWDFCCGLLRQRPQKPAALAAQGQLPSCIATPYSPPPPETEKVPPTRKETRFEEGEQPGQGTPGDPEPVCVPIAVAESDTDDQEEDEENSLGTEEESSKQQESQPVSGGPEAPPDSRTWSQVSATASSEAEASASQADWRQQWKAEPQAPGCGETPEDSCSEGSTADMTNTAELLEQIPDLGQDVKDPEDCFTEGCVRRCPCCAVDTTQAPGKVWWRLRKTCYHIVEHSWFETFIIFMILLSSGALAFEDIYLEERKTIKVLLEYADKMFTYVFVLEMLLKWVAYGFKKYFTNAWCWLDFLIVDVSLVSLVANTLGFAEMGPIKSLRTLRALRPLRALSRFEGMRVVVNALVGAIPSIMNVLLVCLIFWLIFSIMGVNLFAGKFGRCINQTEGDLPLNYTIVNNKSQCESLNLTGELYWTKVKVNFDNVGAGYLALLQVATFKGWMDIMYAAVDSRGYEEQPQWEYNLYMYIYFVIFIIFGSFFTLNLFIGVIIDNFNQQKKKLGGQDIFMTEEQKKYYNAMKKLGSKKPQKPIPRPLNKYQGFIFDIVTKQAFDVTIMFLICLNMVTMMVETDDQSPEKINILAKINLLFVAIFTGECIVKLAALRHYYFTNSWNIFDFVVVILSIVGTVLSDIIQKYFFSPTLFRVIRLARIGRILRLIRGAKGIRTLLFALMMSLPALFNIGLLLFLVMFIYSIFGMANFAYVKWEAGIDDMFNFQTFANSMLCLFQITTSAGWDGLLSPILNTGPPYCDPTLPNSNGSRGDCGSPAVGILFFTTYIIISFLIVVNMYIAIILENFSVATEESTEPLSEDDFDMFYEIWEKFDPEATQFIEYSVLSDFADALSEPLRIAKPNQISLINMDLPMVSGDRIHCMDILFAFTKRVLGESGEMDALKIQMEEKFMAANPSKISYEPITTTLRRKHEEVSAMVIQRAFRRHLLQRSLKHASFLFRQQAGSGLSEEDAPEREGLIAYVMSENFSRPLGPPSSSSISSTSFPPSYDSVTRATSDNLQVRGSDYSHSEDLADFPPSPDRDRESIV
# Procedure summary: Nav 1.5 IonWorks Quattro (IWQ) in vitro assay
# Assay type: cell-based
# Assay conditions: read-out: NAV 1.5 IWQ IC50
pIC50: −log10 of the molar value.

# Compound, pIC50
records = [
    ("Cc1ccc(Cl)cc1Oc1ncc(-c2cc(F)c(C(=O)NS(C)(=O)=O)cc2C)cc1Cl [Example 616]", "< 5.52"),
    ("Cc1cc(Cl)ccc1COc1ncc(-c2cc(F)c(C(=O)NS(C)(=O)=O)cc2C)cc1Cl [Example 681]", "< 5.31"),
    ("Cc1cc(C(=O)NS(C)(=O)=O)c(F)cc1-c1cnc(O[C@H]2C[C@H]3CC[C@@H]2C3)c(Cl)c1 [Example 635]", "< 5.52"),
    ("Cc1cc(C(=O)NS(C)(=O)=O)c(F)cc1-c1cnc(Oc2cc(C(F)(F)F)ccc2Cl)c(Cl)c1 [Example 642]", "< 5.52"),
    ("Cc1cc(C(=O)NS(C)(=O)=O)c(F)cc1-c1cnc(Oc2ccc(Br)cc2)c(Cl)c1 [Example 609]", "< 5.52"),
    ("CC[C@@H](Oc1ncc(-c2cc(F)c(C(=O)NS(C)(=O)=O)cc2C)cc1Cl)c1ccc(F)cc1 [Example 650]", "< 5.52"),
    ("Cc1cc(C(=O)NS(C)(=O)=O)c(F)cc1-c1cnc(OCc2nc3ccccc3s2)c(Cl)c1 [Example 636]", "< 5.52"),
    ("Cc1cc(C(=O)NS(C)(=O)=O)c(F)cc1-c1cnc(O[C@H](C)c2c(F)cc(F)cc2F)c(Cl)c1 [Example 661]", "< 5.00"),
    ("Cc1cc(C(=O)NS(C)(=O)=O)c(F)cc1-c1cnc(Oc2c(Cl)ccc(C)c2F)c(Cl)c1 [Example 670]", "< 5.00"),
    ("CC[C@@H](Oc1ncc(-c2cc(F)c(C(=O)NS(C)(=O)=O)cc2Cl)cc1Cl)c1ccc(F)cc1 [Example 596]", "< 5.52"),
    ("Cc1cc(C(=O)NS(C)(=O)=O)c(F)cc1-c1cnc(Oc2cc(F)cc(F)c2)c(Cl)c1 [Example 630]", "< 5.52"),
    ("Cc1cc(C(=O)NS(C)(=O)=O)c(F)cc1-c1cnc(Oc2cccc(C)c2F)c(Cl)c1 [Example 618]", "< 5.52"),
    ("Cc1cc(C(=O)NS(C)(=O)=O)c(F)cc1-c1cnc(Oc2c(F)cc(F)cc2F)c(Cl)c1 [Example 622]", "< 5.52"),
    ("Cc1cc(C(=O)NS(C)(=O)=O)c(F)cc1-c1cnc(Oc2cc(Cl)c(Cl)cc2Cl)c(Cl)c1 [Example 667]", 5.13),
    ("CC(C)[C@@H](Oc1ncc(-c2cc(F)c(C(=O)NS(C)(=O)=O)cc2Cl)cc1Cl)c1ccccc1 [Example 594]", "< 5.52"),
]

====

Each item that follows carries a reported IC50.
# Tested on: UniProt Q14524
# Procedure summary: Nav 1.5 IonWorks Quattro (IWQ) in vitro assay
# Assay type: cell-based
# Assay conditions: read-out: NAV 1.5 IWQ IC50

# Compound, IC50
rows = [
    ("Cc1cc(C(=O)NS(C)(=O)=O)c(F)cc1-c1cnc(N2CCC[C@@H]2c2ccc(Cl)c(Cl)c2)c(Cl)c1 [Example 658]", "> 3 µM"),
    ("Cc1cc(C(=O)NS(C)(=O)=O)c(F)cc1-c1cnc(Oc2cc(Cl)ccc2F)c(Cl)c1 [Example 617]", "> 3 µM"),
    ("CS(=O)(=O)NC(=O)c1cc(Cl)c(-c2cnc(Oc3ccc(F)c(F)c3F)c(Cl)c2)cc1F [Example 588]", "> 3 µM"),
    ("Cc1cc(C(=O)NS(C)(=O)=O)c(F)cc1-c1cnc(Oc2ccc(F)c3c2CCC3)c(Cl)c1 [Example 672]", "> 10 µM"),
    ("Cc1cc(C(=O)NS(C)(=O)=O)c(F)cc1-c1cnc(O[C@H](C)C2CCC2)c(Cl)c1 [Example 641]", "9.33 µM"),
    ("Cc1cc(C(=O)NS(C)(=O)=O)c(F)cc1-c1cnc(N2CCC[C@@H]2c2cccc(Cl)c2)c(Cl)c1 [Example 656]", "> 3 µM"),
    ("COc1cc(C(=O)NS(C)(=O)=O)ccc1-c1cnc(Oc2cc(Cl)cc(Cl)c2)c(Cl)c1 [Example 348]", "5.74 µM"),
]

====

# Tested on: human Nav1.7 (Homo sapiens (Human))
# Sequence (Q15858 whole entry): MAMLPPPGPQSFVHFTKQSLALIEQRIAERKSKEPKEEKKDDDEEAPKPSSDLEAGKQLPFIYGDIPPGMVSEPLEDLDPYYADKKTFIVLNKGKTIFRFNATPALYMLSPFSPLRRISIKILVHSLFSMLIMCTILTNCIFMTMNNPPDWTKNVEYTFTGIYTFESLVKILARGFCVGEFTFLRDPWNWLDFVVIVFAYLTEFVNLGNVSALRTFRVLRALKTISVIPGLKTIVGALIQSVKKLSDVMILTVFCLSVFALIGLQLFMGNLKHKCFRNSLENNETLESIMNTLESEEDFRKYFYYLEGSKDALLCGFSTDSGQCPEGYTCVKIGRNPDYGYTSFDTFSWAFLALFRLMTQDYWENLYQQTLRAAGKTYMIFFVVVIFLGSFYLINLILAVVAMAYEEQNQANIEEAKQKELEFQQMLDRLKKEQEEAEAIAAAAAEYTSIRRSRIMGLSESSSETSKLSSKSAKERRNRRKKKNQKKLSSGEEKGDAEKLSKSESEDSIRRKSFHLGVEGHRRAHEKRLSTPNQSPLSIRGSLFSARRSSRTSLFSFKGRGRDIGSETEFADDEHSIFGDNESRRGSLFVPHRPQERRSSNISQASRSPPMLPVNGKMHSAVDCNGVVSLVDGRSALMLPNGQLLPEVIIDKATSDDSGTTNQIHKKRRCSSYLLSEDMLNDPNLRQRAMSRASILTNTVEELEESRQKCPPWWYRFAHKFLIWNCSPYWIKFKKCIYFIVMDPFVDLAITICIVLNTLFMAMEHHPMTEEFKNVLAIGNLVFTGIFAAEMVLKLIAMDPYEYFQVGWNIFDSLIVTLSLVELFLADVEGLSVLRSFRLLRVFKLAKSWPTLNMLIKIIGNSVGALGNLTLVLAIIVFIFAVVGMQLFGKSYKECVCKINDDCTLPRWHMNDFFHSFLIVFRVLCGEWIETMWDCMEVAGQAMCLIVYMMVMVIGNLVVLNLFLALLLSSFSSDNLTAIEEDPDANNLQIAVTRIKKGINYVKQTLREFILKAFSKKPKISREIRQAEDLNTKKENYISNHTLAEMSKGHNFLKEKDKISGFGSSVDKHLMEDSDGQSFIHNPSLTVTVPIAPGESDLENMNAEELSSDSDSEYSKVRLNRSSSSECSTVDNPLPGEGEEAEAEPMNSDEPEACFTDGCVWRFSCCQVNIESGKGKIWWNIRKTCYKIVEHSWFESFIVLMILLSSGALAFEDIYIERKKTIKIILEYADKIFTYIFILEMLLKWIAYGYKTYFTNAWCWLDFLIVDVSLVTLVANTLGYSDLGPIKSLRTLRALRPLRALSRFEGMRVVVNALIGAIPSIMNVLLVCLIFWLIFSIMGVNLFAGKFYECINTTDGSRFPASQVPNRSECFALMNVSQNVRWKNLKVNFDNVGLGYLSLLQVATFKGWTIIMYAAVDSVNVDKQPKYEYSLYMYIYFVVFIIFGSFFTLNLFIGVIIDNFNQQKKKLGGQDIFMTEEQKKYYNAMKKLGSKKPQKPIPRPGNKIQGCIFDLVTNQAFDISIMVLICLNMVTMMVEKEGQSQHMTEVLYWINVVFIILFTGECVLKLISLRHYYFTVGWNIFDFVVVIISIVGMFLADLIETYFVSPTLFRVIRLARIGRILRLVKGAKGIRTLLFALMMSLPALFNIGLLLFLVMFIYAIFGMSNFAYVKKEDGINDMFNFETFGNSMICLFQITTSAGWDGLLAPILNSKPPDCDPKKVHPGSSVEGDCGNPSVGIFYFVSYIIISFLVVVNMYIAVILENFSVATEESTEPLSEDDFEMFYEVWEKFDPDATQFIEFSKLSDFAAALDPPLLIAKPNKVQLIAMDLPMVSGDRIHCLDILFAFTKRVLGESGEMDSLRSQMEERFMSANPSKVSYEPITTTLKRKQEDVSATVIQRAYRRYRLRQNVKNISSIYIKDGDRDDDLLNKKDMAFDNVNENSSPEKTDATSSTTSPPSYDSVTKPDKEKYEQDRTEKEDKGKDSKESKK
# Procedure summary: Nav 1.7 in vitro PatchXpress (PX) assay
# Type: cell-based
Classification by IC50 follows these ranges: low-valued: < 60 nM; mid-valued: ≥ 60 nM and < 90 nM; high-valued: ≥ 90 nM

# Molecule, Class assignment
measured = [
    ("Cc1cc(C(=O)NS(C)(=O)=O)c(F)cc1-c1cnc(O[C@H](C)c2nc3cc(Cl)ccc3s2)c(Cl)c1", "mid-valued"),
    ("Cc1cc(Cl)cc(Cl)c1Oc1ncc(-c2ccc(C(=O)NS(C)(=O)=O)cc2OC(F)F)cc1Cl", "low-valued"),
    ("Cc1cc(C(=O)NS(C)(=O)=O)c(F)cc1-c1cnc(Oc2cccc(Cl)c2F)c(Cl)c1", "high-valued"),
    ("CC[C@@H](Oc1ncc(-c2cc(F)c(C(=O)NS(C)(=O)=O)cc2C)cc1Cl)c1ccc(F)cc1 [Example 650]", "mid-valued"),
    ("COc1cc(C(=O)NS(C)(=O)=O)ccc1-c1cnc(Oc2ccc(C)c(Cl)c2)c(Cl)c1", "mid-valued"),
    ("Cc1cc(C(=O)NS(C)(=O)=O)c(F)cc1-c1cnc(N2CCC[C@H]2c2ccccc2)c(Cl)c1", "high-valued"),
    ("Cc1ccc(Oc2ncc(-c3cc(F)c(C(=O)NS(C)(=O)=O)cc3C)cc2Cl)cc1F", "low-valued"),
    ("COc1cc(C(=O)NS(C)(=O)=O)c(F)cc1-c1cnc(Oc2cc(Cl)ccc2C)c(Cl)c1", "low-valued"),
    ("COc1cc(C(=O)NS(C)(=O)=O)ccc1-c1cnc(Oc2ccc(C)c(Cl)c2)c(C#N)c1", "low-valued"),
    ("Cc1cc(C(=O)NS(C)(=O)=O)c(F)cc1-c1cnc(Oc2ccc(F)c(Cl)c2)c(Cl)c1", "high-valued"),
    ("C[C@@H](Oc1ncc(-c2ccc(C(=O)NS(C)(=O)=O)cc2OC(F)F)cc1Cl)c1ccccc1", "low-valued"),
    ("Cc1cc(Cl)c(Oc2ncc(-c3cc(F)c(C(=O)NS(C)(=O)=O)cc3C)cc2Cl)cc1C", "mid-valued"),
    ("Cc1cc(C(=O)NS(C)(=O)=O)c(F)cc1-c1cnc(Oc2ccc(C(C)(C)C)cc2Cl)c(Cl)c1", "mid-valued"),
    ("COc1cc(C(=O)NS(C)(=O)=O)ccc1-c1cnc(Oc2ccc(F)cc2C)c(Cl)c1", "high-valued"),
    ("Cc1cc(C(=O)NS(C)(=O)=O)c(F)cc1-c1cnc(N2CCC[C@@H]2c2cccc(C(F)(F)F)c2)c(Cl)c1", "high-valued"),
    ("Cc1cc(Oc2ncc(-c3ccc(C(=O)NS(C)(=O)=O)cc3OC3COC3)cc2Cl)ccc1Cl", "low-valued"),
    ("Cc1ccc(Oc2ncc(-c3cc(F)c(C(=O)NS(C)(=O)=O)cc3Cl)cc2Cl)cc1F", "mid-valued"),
    ("COc1cc(C(=O)NS(C)(=O)=O)ccc1-c1cnc(Oc2c(C)cc(Cl)cc2Cl)c(C#N)c1", "low-valued"),
    ("Cc1cc(Cl)cc(Cl)c1Oc1ncc(-c2cc(F)c(C(=O)NS(C)(=O)=O)cc2F)cc1Br", "low-valued"),
    ("COc1cc(C(=O)NS(C)(=O)=O)c(F)cc1-c1cnc(N(C)C2CCC2)c(Cl)c1", "high-valued"),
    ("COc1cc(C(=O)NS(C)(=O)=O)c(F)cc1-c1cnc(Oc2cc(Cl)cc(Cl)c2)c(Cl)c1", "low-valued"),
    ("COc1cc(C(=O)NS(C)(=O)=O)ccc1-c1cnc(Oc2ccc(Cl)cc2Cl)c(C#N)c1", "mid-valued"),
    ("Cc1cc(C(=O)NS(C)(=O)=O)c(F)cc1-c1cnc(Oc2cc(F)ccc2F)c(Cl)c1", "low-valued"),
]

====

# Tested on: human Nav1.7 (Homo sapiens (Human))
# Procedure summary: Nav 1.7 in vitro PatchXpress (PX) assay
# Assay type: cell-based
pIC50: −log10 of the molar value.

# Input smiles, pIC50
data = [
    ("CS(=O)(=O)NC(=O)c1ccc(-c2cnc(Oc3cccc4ccccc34)c(Cl)c2)c(OC2COC2)c1", 7.01),
    ("COc1cc(C(=O)NS(C)(=O)=O)ccc1-c1cnc(Oc2ccc(Cl)c(OC(F)(F)F)c2)c(Cl)c1", 7.18),
    ("C[C@@H](Oc1ncc(-c2cc(F)c(C(=O)NS(C)(=O)=O)cc2F)cc1Cl)c1ccc(F)cc1F", 7.05),
    ("CS(=O)(=O)NC(=O)c1ccc(-c2cnc(Oc3ccccc3C(F)(F)F)c(Cl)c2)c(OC(F)F)c1", 7.03),
    ("Cc1cc(C(=O)NS(C)(=O)=O)c(F)cc1-c1cnc(Oc2ccc(F)c(F)c2F)c(Cl)c1", 7.12),
    ("CC(C)[C@@H](Oc1ncc(-c2cc(F)c(C(=O)NS(C)(=O)=O)cc2Cl)cc1Cl)c1ccccc1", 7.31),
    ("Cc1cc(C(=O)NS(C)(=O)=O)c(F)cc1-c1cnc(N2CCC[C@@H]2c2ccc(Cl)c(Cl)c2)c(Cl)c1", 7.05),
]
